IC50 for assorted compounds
Target: Nox2 (Homo sapiens)
Construct: expressed in transfected cells
Sequence (P04839 2-570 limits assumed): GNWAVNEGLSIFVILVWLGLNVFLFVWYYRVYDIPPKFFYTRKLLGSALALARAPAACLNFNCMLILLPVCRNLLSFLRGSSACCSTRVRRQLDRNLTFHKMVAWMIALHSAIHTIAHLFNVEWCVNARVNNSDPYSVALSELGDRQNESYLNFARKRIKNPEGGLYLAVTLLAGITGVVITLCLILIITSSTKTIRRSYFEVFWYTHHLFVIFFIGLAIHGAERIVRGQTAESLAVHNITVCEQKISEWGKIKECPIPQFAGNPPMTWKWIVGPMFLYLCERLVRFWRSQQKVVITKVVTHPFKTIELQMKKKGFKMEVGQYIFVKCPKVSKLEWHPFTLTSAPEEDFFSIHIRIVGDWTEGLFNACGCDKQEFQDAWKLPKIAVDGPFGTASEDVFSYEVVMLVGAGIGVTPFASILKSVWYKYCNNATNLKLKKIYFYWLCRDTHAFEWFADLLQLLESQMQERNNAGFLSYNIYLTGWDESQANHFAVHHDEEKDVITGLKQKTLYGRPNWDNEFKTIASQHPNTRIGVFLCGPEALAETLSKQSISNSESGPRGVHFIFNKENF
Experiment: ROS (superoxide) generation in whole COS-Nox2 cells, L-012 chemiluminescence
Format: cell-based
Details: whole COS-Nox2 cells stimulated with 5 μM PMA
Numeric answer only, unit µM assumed.

Answered examples (3):
> print(dat)
                                   compound  recordedvalue
1  C=C(C)CC1C2c3ccccc3C(CC2(C)C)N1Cc1cccc(F)c1 (racemic) [Compound 11a]             68
2  C=C(C)C[C@@H]1N[C@H]2CC(C)(C)[C@@H]1c1c(Br)ccc(Br)c12             40
3  C=C(C)CC1C2c3c(Br)cccc3C(CC2(C)C)N1Cc1ccc2c(c1)OCO2 (racemic) [Compound 11d]             88

For the compound C=C(C)CC1NC2CC(C)(C)C1c1c(-c3ccc(Cl)c(Cl)c3)cccc12 (racemic) [Compound 12a] , what IC50 is on record? 9

---

Biological target: Nox5 (Homo sapiens, UniProt Q96PH1)
Sequence (Q96PH1 19-737 isoform Q96PH1-3 limits assumed): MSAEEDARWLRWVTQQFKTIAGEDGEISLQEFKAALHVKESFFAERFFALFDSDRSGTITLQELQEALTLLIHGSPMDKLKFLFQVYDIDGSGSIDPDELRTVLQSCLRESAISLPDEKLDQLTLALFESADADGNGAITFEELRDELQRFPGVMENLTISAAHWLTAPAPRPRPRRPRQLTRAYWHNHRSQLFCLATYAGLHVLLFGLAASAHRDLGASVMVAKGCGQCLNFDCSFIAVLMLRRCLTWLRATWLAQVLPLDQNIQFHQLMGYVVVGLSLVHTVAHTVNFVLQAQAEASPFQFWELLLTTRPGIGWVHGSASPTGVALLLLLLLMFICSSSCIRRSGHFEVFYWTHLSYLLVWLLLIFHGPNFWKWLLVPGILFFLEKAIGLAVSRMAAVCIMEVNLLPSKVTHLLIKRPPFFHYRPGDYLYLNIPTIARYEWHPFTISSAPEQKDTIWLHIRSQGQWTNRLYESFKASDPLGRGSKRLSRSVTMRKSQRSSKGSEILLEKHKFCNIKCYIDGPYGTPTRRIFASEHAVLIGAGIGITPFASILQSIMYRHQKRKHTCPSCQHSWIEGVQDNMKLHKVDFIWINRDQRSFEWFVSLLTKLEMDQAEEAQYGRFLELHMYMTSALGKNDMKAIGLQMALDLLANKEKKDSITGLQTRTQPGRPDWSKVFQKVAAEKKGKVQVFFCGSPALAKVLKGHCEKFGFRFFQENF
Experiment: Nox5 activity in HEK-Nox5 cells, L-012 assay
Details: HEK-Nox5 cells stimulated with 1 μM PMA and 0.5 ionomycin; L-012; read-out: IC50 of ROS generation, Nox5 (L-012 assay)
pIC50 for assorted molecules
For clarity, pIC50 is expressed as the negative log10 of concentration in mol/L.

> print(dat)
                                   molecule  recordedvalue
1  C=C(C)CC1NC2CC(C)(C)C1c1c(Br)cccc12 (racemic) [Compound 7]           4.70

For the molecule C=C(C)CC1C2c3c(Br)cccc3C(CC2(C)C)N1Cc1cc(C)on1 (racemic) [Compound 11e] , what pIC50 is on record? 4.51
